Reference source for all entries: patent US11484607B2

# Assay system: PSMA (Homo sapiens)
# Construct: host or cells: 22Rv1 human prostate cancer cells
# Sequence (Q04609 whole entry): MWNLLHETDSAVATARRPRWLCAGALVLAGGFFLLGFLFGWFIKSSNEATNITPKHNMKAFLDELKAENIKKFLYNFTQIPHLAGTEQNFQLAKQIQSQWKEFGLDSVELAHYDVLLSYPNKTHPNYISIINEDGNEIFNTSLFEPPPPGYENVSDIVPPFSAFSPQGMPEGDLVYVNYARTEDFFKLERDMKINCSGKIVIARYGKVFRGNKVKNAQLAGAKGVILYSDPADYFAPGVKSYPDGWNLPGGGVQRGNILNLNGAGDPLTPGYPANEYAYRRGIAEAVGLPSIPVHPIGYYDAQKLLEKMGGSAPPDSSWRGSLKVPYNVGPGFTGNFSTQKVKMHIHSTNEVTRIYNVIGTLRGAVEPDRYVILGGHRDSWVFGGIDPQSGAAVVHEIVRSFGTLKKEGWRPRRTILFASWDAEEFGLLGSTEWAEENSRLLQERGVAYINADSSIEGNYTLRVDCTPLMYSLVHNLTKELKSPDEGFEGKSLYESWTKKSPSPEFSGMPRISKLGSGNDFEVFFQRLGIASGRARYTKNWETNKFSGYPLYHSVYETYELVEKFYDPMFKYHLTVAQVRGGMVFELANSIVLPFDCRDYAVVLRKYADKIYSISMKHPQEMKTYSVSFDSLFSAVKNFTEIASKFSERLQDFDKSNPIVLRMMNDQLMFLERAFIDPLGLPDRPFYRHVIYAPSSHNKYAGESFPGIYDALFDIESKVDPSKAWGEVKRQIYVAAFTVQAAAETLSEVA
# Protocol details: Relative binding affinity of DUPA-NIR conjugates with respect to DUPA-FITC on 22Rv1 cells, flow cytometry
# Assay setup: in vitro binding affinity data
# Experimental: FIG. 3—Relative binding affinities of DUPA-NIR conjugates 1-9 with respect to DUPA-FITC (14). […] Cell bound fluorescence was assayed as using flow cytometry. FIG. 6—Relative binding affinities of DUPA-NIR conjugates with aromatic amino acids linkers with respect to DUPA-FITC (14). […] Cell bound fluorescence was assayed as using flow cytometry. FIG. 3 Relative binding affinities of DUPA-NIR conjugates 1-9 with respect to DUPA-FITC (14). […] Cell bound fluorescence was assayed as using flow cytometry. […]

>  <Molecule>
CC1(C)C(/C=C/C2=C(Oc3ccc(C[C@H](NC(=O)[C@](C)(Cc4ccc(F)cc4)NC(=O)CCOCCOCCNC(=O)CC[C@H](NC(=O)N[C@@H](CCC(=O)O)C(=O)O)C(=O)O)C(=O)O)cc3)C(=C/C=C3/N(CCCCS(=O)(=O)O)c4ccc(S(=O)(=O)O)cc4C3(C)C)/CCC2)=[N+](CCCCS(=O)(=O)[O-])c2ccc(S(=O)(=O)O)cc21 [Compound 36]

>  <affinity for PSMA (in words)>
very high affinity

$$$$
>  <Molecule>
CC1(C)C(/C=C/C2=C(Oc3ccc(C[C@H](NC(=O)CCCCCCCNC(=O)[C@H](Cc4ccccc4)NC(=O)CC[C@H](NC(=O)N[C@@H](CCC(=O)O)C(=O)O)C(=O)O)C(=O)O)cc3)C(=C/C=C3/N(CCCCS(=O)(=O)O)c4ccc(S(=O)(=O)O)cc4C3(C)C)/CCC2)=[N+](CCCCS(=O)(=O)[O-])c2ccc(S(=O)(=O)O)cc21 [Compound 5]

>  <affinity for PSMA (in words)>
very high affinity

$$$$
